Each recorded value in this set is attributed to patent US9951064B2.

Entries and their Ki
# Study Target: EGFR del746-750 T790M (Homo sapiens, UniProt P00533, DEL746-750/T790M)
# Sequence (P00533 with tags, fused parts or gaps DEL746-750/T790M limits assumed): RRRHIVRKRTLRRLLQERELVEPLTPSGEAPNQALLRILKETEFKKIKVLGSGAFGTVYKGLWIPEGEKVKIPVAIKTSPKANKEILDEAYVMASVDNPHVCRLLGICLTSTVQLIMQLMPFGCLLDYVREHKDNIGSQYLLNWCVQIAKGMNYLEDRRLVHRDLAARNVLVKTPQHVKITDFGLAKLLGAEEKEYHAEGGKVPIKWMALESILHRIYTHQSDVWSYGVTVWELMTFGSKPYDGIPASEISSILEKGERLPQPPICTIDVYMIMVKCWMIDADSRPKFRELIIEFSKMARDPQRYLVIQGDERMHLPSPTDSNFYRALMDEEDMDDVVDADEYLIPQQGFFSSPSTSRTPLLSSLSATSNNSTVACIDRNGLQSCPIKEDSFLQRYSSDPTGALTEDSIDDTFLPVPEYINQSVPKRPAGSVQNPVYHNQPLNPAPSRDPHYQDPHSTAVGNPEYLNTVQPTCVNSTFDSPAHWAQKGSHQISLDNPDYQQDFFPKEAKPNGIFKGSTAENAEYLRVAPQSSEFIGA
# Assay Name: EGFR del746-750 T790M biochemical assay (Caliper mobility shift)
# Particulars: 5 μM ATP; apparent Ki (Morrison fit) converted by Cheng-Prusoff, Km of ATP 2.1 μM; read-out: EGFR(T790M/d746-750) Ki
Readout Type: Ki (nM)

{"Molecule": "CC(C)n1nc(N2CC(C(=O)NC3CC(O)C3)C2)c2cnc(Nc3ccnc(-c4cnn(S(=O)(=O)C5CC5)c4)n3)cc21 (stereo not drawn) [Example 170]", "Assay Result": 1.2}
{"Molecule": "CC(C)n1nc(N2CC(C#N)CC2=O)c2cnc(Nc3ccnc(N4CCC(C)(O)CC4)n3)cc21 (stereo not drawn) [Example 137]", "Assay Result": 27}
{"Molecule": "CC[C@H](C)n1nc(N2CC3(COC3)C2)c2cnc(Nc3ccnc(N4CC[C@](C)(O)[C@H](F)C4)n3)cc21 (relative stereo) [Example 65]", "Assay Result": 9.6}
